target: P2X purinoceptor 4 (Homo sapiens); experiment: Antagonist activity at human P2X4 receptor expressed in human 1321N1 cells assessed as reduction in intracellular Ca2+ influx incubated for 30 mins by Fura-2 AM based fluorescence assay relative to control; type: cell-based
quantity name: inhibition (%)

Before answering, review these 4 worked examples.
O=C(NC(=S)Nc1cccc(O)c1)C12CC3CC(CC(C3)C1)C2 = 36
O=C(NC(=S)Nc1ccc(Br)cc1)C12CC3CC(CC(C3)C1)C2 = 21
COc1cccc(NC(=S)NC(=O)C23CC4CC(CC(C4)C2)C3)c1 = 38
COc1ccc(NC(=S)NC(=O)C23CC4CC(CC(C4)C2)C3)cc1 = 32

P: CN(C)CCCNC(=S)NC(=O)C12CC3CC(CC(C3)C1)C2
Q: O=C(NC(=S)Nc1ccc(O)cc1)C12CC3CC(CC(C3)C1)C2
R: O=C(O)C12CC3CC(CC(C3)C1)C2
Problem: Sequence the entries by inhibition, beginning with the highest number. To answer, write out the labels according to the requested order.
Result: Q, R, P

----------
assay: Cytotoxicity against human HEK293 cells assessed as reduction in cell viability at 50 uM incubated for 24 hrs by MTT assay relative to control; format: toxicity, cell-based; details: read-out: INH
Catalogue of cytotoxicity at 24 h, 50 µM readings, one per entry.
The response must be a number in % with no trailing unit.

Before answering, review these 2 worked examples.
O=C(NC(=S)Nc1cccnc1Cl)C12CC3CC(CC(C3)C1)C2 = 4.95
CC(C)c1cc(Br)c(NC(=O)Nc2cccnc2)c(Br)c1 = 2.85

Problem: # query: cytotoxicity at 24 h, 50 µM of entry `O=C(NC(=S)Nc1cc(Cl)c(O)c(Cl)c1)C12CC3CC(CC(C3)C1)C2`
Result: 1.06

----------
test: Cytotoxicity against human HEK293 cells assessed as reduction in cell viability at 50 uM incubated for 24 hrs by MTT assay relative to control; assay type: toxicity, cell-based; details: read-out: INH
quantity name: cytotoxicity at 24 h, 50 µM (%)
The response must be a number in % with no trailing unit.

Problem: # query: cytotoxicity at 24 h, 50 µM of entry `COc1ccc(NC(=S)NC(=O)C23CC4CC(CC(C4)C2)C3)cc1OC`
Result: 7.2

Problem: # query: cytotoxicity at 24 h, 50 µM of entry `Cc1cc(Br)ccc1NC(=S)NC(=O)C12CC3CC(CC(C3)C1)C2`
Result: 7.02

Problem: # query: cytotoxicity at 24 h, 50 µM of entry `O=C(NC(=S)Nc1cccc(O)c1)C12CC3CC(CC(C3)C1)C2`
Result: 6.95

// provenance: ChEMBL document CHEMBL5131484
